All values here come from ChEMBL document CHEMBL1157735.

target: Cytochrome P450 3A4 (Homo sapiens, UniProt P08684); assay: Inhibition of CYP3A4 assessed as time dependent inhibition
Sequence (P08684 whole entry): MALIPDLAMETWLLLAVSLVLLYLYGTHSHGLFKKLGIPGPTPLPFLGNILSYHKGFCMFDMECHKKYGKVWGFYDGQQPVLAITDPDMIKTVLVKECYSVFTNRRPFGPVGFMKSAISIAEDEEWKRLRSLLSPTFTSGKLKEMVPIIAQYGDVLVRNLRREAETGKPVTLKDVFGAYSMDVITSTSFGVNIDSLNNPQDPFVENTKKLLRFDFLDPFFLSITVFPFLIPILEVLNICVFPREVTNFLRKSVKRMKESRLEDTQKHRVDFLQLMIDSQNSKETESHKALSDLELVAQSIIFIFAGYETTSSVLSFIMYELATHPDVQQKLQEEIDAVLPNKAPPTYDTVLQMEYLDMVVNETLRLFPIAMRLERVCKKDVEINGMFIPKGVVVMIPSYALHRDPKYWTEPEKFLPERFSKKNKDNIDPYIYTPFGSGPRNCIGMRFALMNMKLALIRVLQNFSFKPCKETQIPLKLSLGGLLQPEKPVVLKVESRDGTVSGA
endpoint name: TDI

1) N#Cc1cccc(S(=O)(=O)N2C[C@H](n3ncc4c3CCCC4)C[C@H]2C(=O)N[C@@H](Cc2ccc(NC(=O)c3c(Cl)cncc3Cl)cc2)C(=O)O)c1; 0.016 min⁻¹
2) CC1CC(C)CN(C2CC(C(=O)NC(Cc3ccc(NC(=O)c4c(Cl)cncc4Cl)cc3)C(=O)O)N(S(=O)(=O)c3cccc(C#N)c3)C2)C1 (mixture of isomers); 0.019 min⁻¹
3) CC1CCCN(C2CC(C(=O)NC(Cc3ccc(NC(=O)c4c(Cl)cncc4Cl)cc3)C(=O)O)N(S(=O)(=O)c3cccc(C#N)c3)C2)C1 (mixture of isomers); 0.019 min⁻¹
4) N#Cc1cccc(S(=O)(=O)N2C[C@H](N3CCOCC3)C[C@H]2C(=O)N[C@@H](Cc2ccc(NC(=O)c3c(Cl)cncc3Cl)cc2)C(=O)O)c1; 0.02 min⁻¹
5) N#Cc1cccc(S(=O)(=O)N2C[C@H](N3CCCCCC3)C[C@H]2C(=O)N[C@@H](Cc2ccc(NC(=O)c3c(Cl)cncc3Cl)cc2)C(=O)O)c1; 0.021 min⁻¹
6) N#Cc1cccc(S(=O)(=O)N2C[C@H](N3CCCCC3)C[C@H]2C(=O)N[C@@H](Cc2ccc(NC(=O)c3c(Cl)cncc3Cl)cc2)C(=O)O)c1; 0.016 min⁻¹
